The values you see were collected from the RNAGym collection of RNA variant scans (doi:10.7554/elife.80360).

Property: self-cleavage; scope: individual variants
B1: CPEB3 Ribozyme (parent)
chain: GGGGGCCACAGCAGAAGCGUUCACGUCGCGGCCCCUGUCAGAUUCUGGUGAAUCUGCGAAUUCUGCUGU

Variants of: B1
measurement protocol: self-cleavage, relative activity (ratio to wild type); higher = more cleavage; co-transcriptional

[
  {
    "variant key": "C39G U64A",
    "self-cleavage": 0.636
  },
  {
    "variant key": "G19C G30U",
    "self-cleavage": 0.157
  },
  {
    "variant key": "G14U G37A",
    "self-cleavage": 0.197
  },
  {
    "variant key": "G5A A13U",
    "self-cleavage": 0.642
  },
  {
    "variant key": "G14U U46G",
    "self-cleavage": 0.871
  },
  {
    "variant key": "A8U U53G",
    "self-cleavage": 0.891
  },
  {
    "variant key": "G2A U44G",
    "self-cleavage": 0.0958
  },
  {
    "variant key": "C7G G37A",
    "self-cleavage": 0.153
  },
  {
    "variant key": "C6A A13U",
    "self-cleavage": 0.346
  },
  {
    "variant key": "C7U U64G",
    "self-cleavage": 0.899
  },
  {
    "variant key": "A10G C32U",
    "self-cleavage": 0.939
  },
  {
    "variant key": "A60U G68U",
    "self-cleavage": 0.66
  },
  {
    "variant key": "G41A G48C",
    "self-cleavage": 0.876
  },
  {
    "variant key": "A8C U38A",
    "self-cleavage": 0.897
  },
  {
    "variant key": "A60G U67A",
    "self-cleavage": 0.944
  },
  {
    "variant key": "C34U G65U",
    "self-cleavage": 0.824
  },
  {
    "variant key": "C27U C63G",
    "self-cleavage": 0.263
  },
  {
    "variant key": "G25U G65U",
    "self-cleavage": 0.187
  },
  {
    "variant key": "C63G G65U",
    "self-cleavage": 0.525
  },
  {
    "variant key": "C35A G48A",
    "self-cleavage": 0.248
  },
  {
    "variant key": "G3C C63G",
    "self-cleavage": 0.0687
  },
  {
    "variant key": "G25C U61C",
    "self-cleavage": 0.0705
  },
  {
    "variant key": "C24A C35A",
    "self-cleavage": 0.185
  },
  {
    "variant key": "C12G A40C",
    "self-cleavage": 0.318
  },
  {
    "variant key": "C32A C35G",
    "self-cleavage": 0.163
  },
  {
    "variant key": "G3C A10U",
    "self-cleavage": 0.334
  },
  {
    "variant key": "C22U G48A",
    "self-cleavage": 0.379
  },
  {
    "variant key": "G56U U67A",
    "self-cleavage": 0.943
  },
  {
    "variant key": "C6A C39G",
    "self-cleavage": 0.372
  },
  {
    "variant key": "A23U U69G",
    "self-cleavage": 1.04
  },
  {
    "variant key": "C33U U55G",
    "self-cleavage": 0.8
  },
  {
    "variant key": "G3U U55G",
    "self-cleavage": 0.0975
  },
  {
    "variant key": "G37A C45A",
    "self-cleavage": 0.23
  },
  {
    "variant key": "G3C A59U",
    "self-cleavage": 0.0529
  },
  {
    "variant key": "G25C U64G",
    "self-cleavage": 0.155
  },
  {
    "variant key": "G58U C66G",
    "self-cleavage": 0.974
  },
  {
    "variant key": "G28U C57G",
    "self-cleavage": 0.161
  },
  {
    "variant key": "U21A C32A",
    "self-cleavage": 0.808
  },
  {
    "variant key": "U46C U53A",
    "self-cleavage": 0.933
  },
  {
    "variant key": "A23U C45A",
    "self-cleavage": 0.997
  },
  {
    "variant key": "U36A C66G",
    "self-cleavage": 0.257
  },
  {
    "variant key": "A13G C27G",
    "self-cleavage": 0.137
  },
  {
    "variant key": "G25A G50U",
    "self-cleavage": 0.267
  },
  {
    "variant key": "C45A U49G",
    "self-cleavage": 1.01
  },
  {
    "variant key": "A23G U26G",
    "self-cleavage": 0.788
  },
  {
    "variant key": "G47A A59C",
    "self-cleavage": 0.769
  }
]
